- Test system: RPMI-8226 leukemia
- procedureSummary: NCI tumour cell line growth inhibition, 48 h
Could you please report measured TGI for the items listed next?

Q) Input Cc1cn(CCC(N)C(=O)O)c(=O)[nH]c1=O (stereo not given) , output reported TGI.
A) > 100 µM

Q) Input COC(=O)CCCC1(CCCC(=O)OC)CCCCCCCCC(CCCC(=O)OC)(CCCC(=O)OC)C(=O)C1=O , output reported TGI.
A) > 100 µM

Q) Input CC(C)=O.O=C([O-])C(F)(F)F.O=C([O-])C(F)(F)F.O=C([O-])C(F)(F)F.O=C([O-])C(F)(F)F.[Rh+2].[Rh+2] , output reported TGI.
A) > 100 µM

Q) Input CC(C(=O)NCCNC(=O)CCC(=O)N(C)O)C(=O)NCCNC(=O)CCC(=O)N(C)O , output reported TGI.
A) > 100 µM

Q) Input O=C(/C=C/c1ccc(OCc2ccccc2)cc1)NCc1ccc(C(=O)NCc2ccccc2)cc1 , output reported TGI.
A) > 100 µM

Q) Input COc1ccc(N2C(=O)/C(=C/C(Cl)=C/c3ccc([N+](=O)[O-])cc3)SC2=S)cc1 , output reported TGI.
A) 0.727 µM

Q) Input CC(N)Cc1ccc(Cl)cc1 (stereo not given) , output reported TGI.
A) > 100 µM

Q) Input C=CC(C)(C)C1(CC(OC)OC)C(=O)N(C)c2ccccc21 (stereo not given) , output reported TGI.
A) > 25 µM

Q) Input CCn1c(-c2ccc(OC)cc2)nc2c1C(=O)c1ccccc1C2=O , output reported TGI.
A) > 100 µM

Q) Input O=C1CCCCC/C1=C\c1cccc([N+](=O)[O-])c1 , output reported TGI.
A) 78.1 µM

====

- Tested on: K-562 leukemia
- procedureSummary: NCI tumour cell line growth inhibition, 48 h
Could you please report measured TGI for the items listed next?

Q) Input N#C/C(=C/n1c(=S)[nH]c2ccccc21)C(N)=O , output reported TGI.
A) > 100 µM

Q) Input Nc1ncnc2c1sc(=S)n2-c1ccccc1 , output reported TGI.
A) > 100 µM

Q) Input COc1cc2c(c(O)c1C)C(=O)CC(c1ccccc1)O2 (configuration not stated) , output reported TGI.
A) > 100 µM

Q) Input Cc1cc(Br)cc(C)c1NC(=O)C(=O)C(C(=O)c1ccncc1)C1OC(=O)c2ccccc21 (configuration not stated) , output reported TGI.
A) > 100 µM

Q) Input O=C1NC(O)c2ccccc2O1 (configuration not stated) , output reported TGI.
A) > 100 µM

Q) Input CCCCCCCCCCCC[N+](C)(C)Cc1ccccc1 , output reported TGI.
A) 6.63 µM

Q) Input COc1cccc(Sc2ccc([N+](=O)[O-])c3no[n+]([O-])c23)c1 , output reported TGI.
A) 13 µM

Q) Input O=S(c1ccccc1)C1CC2CC3(CCC21O)OCCO3 (configuration not stated) , output reported TGI.
A) > 100 µM

Q) Input CCCCCCCCCCCCCCCCNCC(O)CN (configuration not stated) , output reported TGI.
A) 3.35 µM

Q) Input O=C1OC(c2ccccc2)(c2ccccc2)c2ccc3ccc(F)cc3c21 , output reported TGI.
A) > 100 µM

Q) Input Cc1ccc(/C(O)=C/c2nc3cccnc3[nH]c2=O)cc1 , output reported TGI.
A) > 100 µM

Q) Input COc1ccc(OC)c(NC(=O)c2cccc(NC3=C(Cl)C(=O)N(Cc4ccccc4)C3=O)c2)c1 , output reported TGI.
A) > 100 µM

====

Could you please report measured GI50 for the items listed next?
- Test system: LOX IMVI melanoma
- procedureSummary: NCI tumour cell line growth inhibition, 48 h

Q) Input O=C(Nc1ccc2ncnc(Nc3ccc(Oc4cccc(F)c4)c(Cl)c3)c2c1)c1ccc(CN2CCOCC2)cc1 , output reported GI50.
A) 2.24 µM

Q) Input Cc1ccc2[nH]c3c(c2c1)N=c1ccccc1=NO3 , output reported GI50.
A) 97.8 µM

Q) Input COc1cc(OC)c(/C=C/C(=O)c2ccc(Nc3ncnc4ccccc34)cc2)c(OC)c1 , output reported GI50.
A) 1.06 µM

Q) Input O=C1CSC(c2ccc(-c3nc4ccccc4[nH]3)cc2)=N1 , output reported GI50.
A) 15.7 µM

====

- Tested on: SF-295 CNS
- procedureSummary: NCI tumour cell line growth inhibition, 48 h
Where a SMILES comes first, the peptide text is derived from it. [ ]: non-standard residue; d: D form. The star is where a group is joined. X28 = COC1=CC(=O)N(C(=O)[C@@H](O*)C(C)C)[C@H]1Cc1ccccc1; Bn2Val = CC(C)[C@@H](C(=O)*)N(Cc1ccccc1)Cc1ccccc1; NMeV = CN[C@H](C(=O)O)C(C)C; dNMeA = CN[C@H](C)C(=O)O
endpointName: TGI

Q) Input Nc1nc2c(c(-c3ccccc3Cl)n1)COC/C2=C\c1ccccc1Cl , output reported TGI.
A) 27.7 µM

Q) Input CCOC(=O)C1(C#N)C2(C#N)C(N)=NC(ON=C(C)C)(ON=C(C)C)C12C#N (configuration not stated) , output reported TGI.
A) > 100 µM

Q) Input COC1=CC(=O)C2C(C1=O)[C@@H]1c3ccccc3OC(C)(C)[C@H]21 (some centres not stated) , output reported TGI.
A) > 100 µM

Q) Input Cc1cc(C)nc(NS(=O)(=O)c2ccc(Nc3c4ccccc4nc4c(C(=O)Nc5ccc(S(=O)(=O)Nc6cc(C)on6)cc5)ccc(Cl)c34)cc2)n1 , output reported TGI.
A) 44.8 µM

Q) Input O=C1/C(=C/c2ccc(F)c(F)c2)CN(C(=O)C(Cl)Cl)C/C1=C\c1ccc(F)c(F)c1 , output reported TGI.
A) 0.21 µM

Q) Input C=C1C(=O)O[C@H]2[C@H]1CC/C(Cn1cc(Cc3c[nH]c4ccccc34)nn1)=C\CC[C@@]1(C)O[C@@H]21 , output reported TGI.
A) 17.2 µM

Q) Input C=C1C2C[C@@H]3OC4CC5O[C@]6(CC5OC4C(C)C3OC(=O)CC3CC[C@@H]4OC5C7OC8C[C@](CCC9CC(=C)[C@H](CCC(C[C@H]1C)O2)O9)(OC7C4O3)O[C@@H]85)C[C@@H]1O[C@@]2(CC(C)[C@@H]3OC(CC(=O)CCO)C(O)C[C@@H]3O2)CC(C)[C@@H]1O6 (some centres not stated) , output reported TGI.
A) < 0.001 µM

Q) Input N=S(=O)(c1ccccc1)c1ccccc1 , output reported TGI.
A) > 100 µM

Q) Input CCN(CCCl)CCCCCNc1c2ccccc2nc2ccc(OC)cc12 , output reported TGI.
A) 9.68 µM

Q) Input O=C(O)C1CCN(Cc2oc(CO)cc(=O)c2O)C1 (configuration not stated) , output reported TGI.
A) > 100 µM

Q) Input CC(=O)NNc1nc(C)c(C(/C=C/c2ccc([N+](=O)[O-])cc2)=N/NC(N)=O)s1 , output reported TGI.
A) > 100 µM

Q) Input COC12C=C/C(=C(/C(=O)OCCSc3ccnn3C)C(=O)CCCCCCCCC3(OC)C=C/C(=C(/C(=O)OCCSc4ccnn4C)C(=O)CCCCCCCC1)O3)O2 , output reported TGI.
A) 2.93 µM

Q) Input Nc1ncnc2c1c(-c1ccc(Oc3ccccc3)cc1)nn2C[C@H]1SSC[C@@H]1O , output reported TGI.
A) 9.9 µM

Q) Input O=c1cc(-c2ccccc2)oc2ccc(OC/C(=N/O)c3ccc(F)cc3)cc12 , output reported TGI.
A) 8.12 µM

Q) Input Cc1ccc2[nH]c3c(c2c1)N=c1ccccc1=NO3 , output reported TGI.
A) 84.9 µM

Q) Input O=c1/c(=C/c2c(O)ccc3ccccc23)sc2nc3ccccc3n12 , output reported TGI.
A) > 100 µM

Q) Input Cc1ccc(/C(O)=C/c2nc3cccnc3[nH]c2=O)cc1 , output reported TGI.
A) > 100 µM

Q) Input O=C(O)CNc1ccc(Cl)c(Cl)c1 , output reported TGI.
A) 75.9 µM

Q) Input CC(N)Cc1ccc(Cl)cc1 (configuration not stated) , output reported TGI.
A) > 100 µM

Q) Input N/C(=N\S(=O)(=O)c1ccc(-c2ccccn2)s1)Nc1ccc(Cl)cc1 , output reported TGI.
A) 40.3 µM

Q) Input Cc1c(NC(=O)CCl)c(=O)oc2c(C)c3occc(=O)c3cc12 , output reported TGI.
A) 25.2 µM

Q) Input O=C(Nc1cc(Cl)ccc1Cl)c1cc2cccc(Br)c2oc1=O , output reported TGI.
A) > 100 µM

Q) Input O=P(O)(O)OCC1OC(n2cnc3c(NCc4ccco4)ncnc32)C(O)C1O (configuration not stated) , output reported TGI.
A) > 35.1 µM

Q) Input COC(NC(N)=O)C(=O)O (configuration not stated) , output reported TGI.
A) > 100 µM

Q) Input COC1=CC(=O)N(C(=O)[C@@H](OC(=O)[C@@H](C)N(C)C(=O)[C@@H]2CCCN2C(=O)[C@H](C(C)C)N(C)C(=O)[C@@H](NC(=O)[C@H](C(C)C)N(Cc2ccccc2)Cc2ccccc2)C(C)C)C(C)C)[C@H]1Cc1ccccc1 (Bn2Val-V[NMeV]P[dNMeA]-X28) , output reported TGI.
A) > 100 µM

Q) Input C[N+](C)=c1ccc2nc3c(ccc4ccccc43)oc-2c1 , output reported TGI.
A) 29 µM

Q) Input CCO/C(CCn1[nH]c(=O)c(Cl)c(Cl)c1=O)=N\NC(=O)C(=O)NN , output reported TGI.
A) > 100 µM

Q) Input O=C(/C=C/c1ccc2c(c1)OCO2)NCCc1ccco1 , output reported TGI.
A) > 100 µM

Q) Input O=C1CSC(c2ccc(-c3nc4ccccc4[nH]3)cc2)=N1 , output reported TGI.
A) > 50 µM

Q) Input Cc1nc2ccccc2c(=O)n1NC(=O)c1ccccc1[N+](=O)[O-] , output reported TGI.
A) > 100 µM

Q) Input O=C(O)CN1CCCC(Cc2c[nH]c3ccccc23)C1 (configuration not stated) , output reported TGI.
A) > 100 µM

Q) Input COc1ccc(OC)c(NC(=O)c2cccc(NC3=C(Cl)C(=O)N(Cc4ccccc4)C3=O)c2)c1 , output reported TGI.
A) > 100 µM

Q) Input CCC[CH2][Sn]([CH2]CCC)([CH2]CCC)[O]C(=O)C(OC(C)=O)c1ccccc1 (configuration not stated) , output reported TGI.
A) 0.301 µM

Q) Input CC(CN(C)C)S(=O)(=O)c1ccc(-c2cnc(N)c(C(=O)Nc3ccccc3)n2)cc1 (configuration not stated) , output reported TGI.
A) 25.7 µM

Q) Input O=C1Nc2ccccc2/C1=C\c1cccc(/C=C2/C(=O)Nc3ccccc32)n1 , output reported TGI.
A) 2.24 µM

Q) Input CCNC(=O)NNc1ncnc2c1c(-c1ccc(Cl)cc1)cn2-c1ccc(C)cc1 , output reported TGI.
A) 30.5 µM

Q) Input COc1ccc(C(=O)c2c(-c3ccccc3NC(=O)C(F)(F)F)[nH]c3ccccc23)cc1 , output reported TGI.
A) 25.5 µM
